system: Canis familiaris; experiment: Antiarrhythmic effect in coronary artery ligated dogs model at a dose of 5 mg/kg, value noted at end dose.; type: functional, Canis lupus familiaris, Heart
What Normal beats was measured for each of the following?
Give bare numbers, in %.

Worked cases, answers included:
# molecule, measure.unit, Normal beats
records = [
    ("CC1CCC(C)N1CCCCC(O)(c1ccccc1)c1ccccn1 (stereo unspecified)", "%", 88),
    ("CC(C)N(CCC(C(N)=O)(c1ccccc1)c1ccccn1)C(C)C (stereo unspecified) [DISOPYRAMIDE]", "%", 89),
    ("CC1CCCC(C)N1CCC(C#N)(c1ccccc1)c1ccccc1.Cl (stereo unspecified)", "%", 91),
]

Items follow; give Normal beats for each.
1. CC1CCCC(C)N1CCCC(O)(c1ccccc1)c1ccncc1 (stereo unspecified)
2. CC1CCCC(C)N1CCCC(c1ccccc1)c1ccccc1.Cl (stereo unspecified)
3. CC1CCCC(C)N1CCCC(c1ccccc1)c1ccccn1.Cl (stereo unspecified)

Response:
1: 51; 2: 95; 3: 62

* * *

system: Canis familiaris; experiment: Antiarrhythmic effect in coronary artery ligated dogs model at a dose of 5 mg/kg, value noted at end dose.; assay type: functional, Canis lupus familiaris, Heart
reported.metric: Normal beats (%)
Answers are plain numbers, in %.

Take a look at these entries with their results.
# compound, assay.result
measured = [
    ("CC1CCCC(C)N1CCCC(C(N)=O)(c1ccccc1)c1ccccc1.Cl (stereo unspecified)", 98),
    ("CC1CCCC(C)N1CCCC(O)c1ccccc1.Cl (stereo unspecified)", 99),
    ("CC1CCCC(C)N1CCCCC(O)(c1ccccc1)c1ccccc1 (stereo unspecified)", 99),
    ("CC(=O)NCC(CCCN1C(C)CCCC1C)(c1ccccc1)c1ccccc1.Cl (stereo unspecified)", 95),
    ("CC1CCCC(C)N1CCCC(O)(c1ccccc1)C1CCCCC1.Cl (stereo unspecified)", 98),
    ("CC1CCCC(C)N1CCC(O)(c1ccccc1)c1ccccc1.Cl (stereo unspecified)", 97),
    ("CC1CCCC(C)N1CCCC(O)(c1ccccc1)c1ccccn1.Cl (stereo unspecified) [PIRMENOL HYDROCHLORIDE]", 94),
    ("CC1CCCC(C)N1CCCC(C#N)(c1ccccc1)c1ccccc1.Cl (stereo unspecified)", 90),
]

Provide Normal beats values for the following items, in order.
1. CC(=O)NCC(CCN1C(C)CCCC1C)(c1ccccc1)c1ccccc1 (stereo unspecified)
2. CC1CCCC(C)N1CCC(CN)(c1ccccc1)c1ccccc1 (stereo unspecified)
3. CC1CCCC(C)N1CCCC(O)(c1ccccc1)c1ccccc1.Cl (stereo unspecified)

Response:
[82, 100, 96]

* * *

test system: Canis familiaris; assay: Antiarrhythmic effect in coronary artery ligated dogs model at a dose of 5 mg/kg, administered intravenously and value noted at 20 min; assay type: functional, Canis lupus familiaris, Heart; settings: route intravenous
Exercise: state measured Normal beats for each of the compounds provided.

# compound, Normal beats
measured = [
    ("CC1CCCC(C)N1CCCCC(O)(c1ccccc1)c1ccccc1 (stereo not given)", "84%"),
    ("CC1CCCC(C)N1CCCC(O)(c1ccccc1)c1cccnc1.Cl (stereo not given)", "16%"),
    ("CC1CCC(C)N1CCCCC(O)(c1ccccc1)c1ccccn1 (stereo not given)", "52%"),
    ("CC1CCCC(C)N1CCCC(O)(c1ccccc1)C1CCCCC1.Cl (stereo not given)", "65%"),
]

Okay, next one:
Query: So what does the record say about Normal beats for CC(=O)NCC(CCCN1C(C)CCCC1C)(c1ccccc1)c1ccccc1.Cl (stereo not given) ?
Response: 71%
